assay: Rat liver microsome stability (RLM) experiment; format: in vitro ADME; conditions: rat liver microsomal stability, Table 4; 0.5 mg protein/mL, NADPH, 37° C., 0-45 min
Field 'label' (enum: t / f). Set to t when RLM is strictly under 5 µL/min/mg; else f.

// known answers, use as guide
COCc1cn2nc(COc3nn4c(-c5cc(C)on5)nnc4cc3OC)ccc2n1; f
COc1cc2nnc(-c3cc(C)on3)n2nc1OCc1ccc(OC2CCOCC2)nn1; f

RLM strictly < 5 µL/min/mg for this compound? COCc1ccc(COc2nn3c(-c4cc(C)on4)nnc3cc2OC)nn1 t

RLM strictly < 5 µL/min/mg for this compound? COc1cc2nnc(-c3cc(C)on3)n2nc1OCc1ccc2c(n1)CCN(C1COC1)C2 t

RLM strictly < 5 µL/min/mg for this compound? COc1cc2nnc(-c3cc(C)on3)n2nc1OCc1ccc2c(n1)CCN(Cc1cc(C)on1)C2 f

Reference for the values: patent US12637468B2
